These entries and their values trace back to paper PMC9666628.

measurement target: T1, wild-type Cbx5 chromodomain (tags removed) (human, UniProt P45973 18-75)
T1 construct: chromodomain of human Cbx5; also called Cbx5.wt; source: E. coli BL21(DE3), purified (Ni-NTA; tags removed with TEV protease)
T1 sequence (P45973 18-75, looked up): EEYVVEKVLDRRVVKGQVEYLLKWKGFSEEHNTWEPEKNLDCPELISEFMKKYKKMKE
protocol description: fluorescence polarisation; 0.5 nM FITC-labelled peptide; chromodomains 200-0.2 µM (wild type) or 50 µM-50 nM (Cbx7.V1 and all Cbx.VDs); 30 min at 25 °C; 25 mM HEPES pH 7.5, 150 mM NaCl, 1 mM DTT, 0.01% TritonX-100; one-site total binding model
condition description: both partners purified
recorded metric: pKd
Scale: pKd equals -log10([C]), with [C] in mol/L.

Query (binder): ARTKQTARKSTGGKAPR (trimethyl-lysine at K9; fluorescein isothiocyanate (FITC) at the N-terminus) [H3K9me3 peptide, N-terminal FITC] ; field requested: pKd
5.30
